Molecular target: Human SST5 somatostatin receptor (SSTR5) (Homo sapiens, UniProt P35346)
Construct: expressed in transfected cells; host or cells: HEK-293 EBNA
Sequence (P35346 whole entry): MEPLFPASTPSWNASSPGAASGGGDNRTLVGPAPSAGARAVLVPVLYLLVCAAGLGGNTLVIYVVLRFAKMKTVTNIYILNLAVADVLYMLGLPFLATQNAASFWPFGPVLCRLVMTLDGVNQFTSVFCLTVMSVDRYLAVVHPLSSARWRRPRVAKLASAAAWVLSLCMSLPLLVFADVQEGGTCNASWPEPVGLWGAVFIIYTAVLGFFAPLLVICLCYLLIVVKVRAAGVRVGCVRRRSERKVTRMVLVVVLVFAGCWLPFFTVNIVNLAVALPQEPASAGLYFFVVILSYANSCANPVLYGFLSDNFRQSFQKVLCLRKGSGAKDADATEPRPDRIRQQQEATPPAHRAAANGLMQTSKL
Experiment: Filter plate assay for SST5 receptor, displacement of [125I]SST-14
Assay type: binding
Conditions: 0.5 uM
measurement.type: SSTR5 Inhib 0.5 uM % (inhibition of binding of SST-14 to SSTR5) (%)

// known answers, use as guide
{"molecule": "COC[C@H]1OC(OCc2ccc3ccccc3c2)[C@H](NC(=O)CCCNC(=N)N)[C@@H](OCc2ccc3ccccc3c2)[C@@H]1O (stereo partly shown) [Compound 104]", "reported.measurement": 47}
{"molecule": "COC[C@H]1OC(OCc2ccc(Cl)cc2)[C@H](NC(=O)CCN)[C@H](OCc2ccc(Cl)cc2)[C@@H]1O (stereo partly shown) [Compound 39]", "reported.measurement": 74}
{"molecule": "COC1C(O)C(COCc2ccc(-c3ccccc3)cc2)OC(OCc2ccc(Cl)cc2)C1NC(=O)CCCN (stereo not shown) [Compound 40]", "reported.measurement": 66}
{"molecule": "COC[C@H]1OC(OCc2ccccc2)[C@H](NC(=O)CCCNC(=N)N)[C@@H](OCc2ccc(-c3ccccc3)cc2)[C@@H]1O (stereo partly shown) [Compound 165]", "reported.measurement": 37}
{"molecule": "COC[C@H]1OC(OCc2ccc(-c3ccccc3)cc2)[C@H](NC(=O)CCCNC(=N)N)[C@@H](OCc2ccc3ccccc3c2)[C@@H]1O (stereo partly shown) [Compound 178]", "reported.measurement": 39}

I: COC[C@H]1OC(OCc2ccccc2)[C@H](NC(=O)CCCN)[C@@H](OCc2ccc(Cl)cc2)[C@@H]1O (stereo partly shown) [Compound 110]
II: COC[C@H]1OC(OCc2ccc(Cl)cc2)[C@H](NC(=O)CCCN)[C@@H](OCc2ccc(-c3ccccc3)cc2)[C@@H]1O (stereo partly shown) [Compound 30]
Asked: Hi team, can someone confirm which has the larger SSTR5 Inhib 0.5 uM % (inhibition of binding of SST-14 to SSTR5): I or II ? Thanks. Reply with the label of the item you choose.
Given back: II

I: CSC1OC(COCc2ccc(Cl)cc2)C(O)C(OCc2ccc(-c3ccccc3)cc2)C1NC(=O)CN (stereo not shown) [Compound 83]
II: COC[C@H]1OC(OCc2ccccc2)[C@H](NC(=O)CNC(=N)N)[C@H](OCc2ccc3ccccc3c2)[C@@H]1O (stereo partly shown) [Compound 162]
Asked: Look at I and II . Which one has the lower recorded SSTR5 Inhib 0.5 uM % (inhibition of binding of SST-14 to SSTR5) number? Answer with the label corresponding to your selection.
Given back: II

----------
Molecular target: Human SST5 somatostatin receptor (SSTR5) (Homo sapiens, UniProt P35346)
Construct: expressed in transfected cells; host or cells: HEK-293 EBNA
Experiment: Filter plate assay for SST5 receptor, displacement of [125I]SST-14
Assay type: binding
Details: 0.5 uM
measurement.type: SSTR5 Inhib 0.5 uM % (inhibition of binding of SST-14 to SSTR5) (%)

I: COC[C@H]1OC(OCc2ccccc2)[C@H](NC(=O)CCNC(=N)N)[C@H](OCc2ccccc2)[C@@H]1O (stereo partly shown)
II: COC[C@H]1OC(OCc2ccc(-c3ccccc3)cc2)[C@H](NC(=O)CNC(=N)N)[C@@H](OCc2ccc(-c3ccccc3)cc2)[C@@H]1O (stereo partly shown)
Asked: I'd appreciate it if you could identify which of I and II has the greater SSTR5 Inhib 0.5 uM % (inhibition of binding of SST-14 to SSTR5). # respond with the chosen item's label
Given back: I

----------
Molecular target: Human SST5 somatostatin receptor (SSTR5) (Homo sapiens, UniProt P35346)
Construct: expressed in transfected cells; host or cells: HEK-293 EBNA
Assay: Filter plate assay for SST5 receptor, displacement of [125I]SST-14
Assay type: binding
Settings: 10 uM
measurement.type: SSTR5 Inhib 10 uM % (inhibition of binding of SST-14 to SSTR5) (%)

{"compound": "CO[C@@H]1[C@H](O)[C@@H](COCc2ccc3ccccc3c2)OC(OCc2ccc(Cl)cc2)[C@@H]1NC(=O)C1CCCN(C(=N)N)C1 (stereo partly drawn)", "reported.measurement": 89}
{"compound": "COC[C@H]1OC(OCc2ccc(-c3ccccc3)cc2)[C@H](NC(=O)CCCNC(=N)N)[C@@H](OCc2ccc(-c3ccccc3)cc2)[C@@H]1O (stereo partly drawn) [Compound 55]", "reported.measurement": 91}
{"compound": "COC[C@H]1OC(OCc2ccc3ccccc3c2)[C@H](NC(=O)CCCNC(=N)N)[C@H](OCc2ccccc2)[C@@H]1O (stereo partly drawn)", "reported.measurement": 90}

----------
Target: Human SST5 somatostatin receptor (SSTR5) (Homo sapiens, UniProt P35346)
Construct: expressed in transfected cells; host or cells: HEK-293 EBNA
Experiment: Filter plate assay for SST5 receptor, displacement of [125I]SST-14
Type: binding
Settings: 10 uM
measurement.type: SSTR5 Inhib 10 uM % (inhibition of binding of SST-14 to SSTR5) (%)

{"compound": "CSC1O[C@H](COCc2ccccc2)[C@@H](O)[C@@H](OCc2ccc(-c3ccccc3)cc2)[C@H]1NC(=O)CNC(=N)N (stereo partly shown) [Compound 149]", "experimental.system": "Human SST5 somatostatin receptor (SSTR5) (Homo sapiens, UniProt P35346)", "reported.measurement": 76}
{"compound": "COC[C@H]1OC(OCc2ccc3ccccc3c2)[C@H](NC(=O)CCCNC(=N)N)[C@@H](OCc2ccc(Cl)cc2)[C@@H]1O (stereo partly shown) [Compound 103]", "experimental.system": "Human SST5 somatostatin receptor (SSTR5) (Homo sapiens, UniProt P35346)", "reported.measurement": 84}
{"compound": "CSC1O[C@H](COCc2ccc3ccccc3c2)[C@@H](O)[C@@H](OCc2ccc3ccccc3c2)[C@H]1NC(=O)CCNC(=N)N (stereo partly shown) [Compound 114]", "experimental.system": "Human SST5 somatostatin receptor (SSTR5) (Homo sapiens, UniProt P35346)", "reported.measurement": 82}
{"compound": "COC[C@H]1OC(OCCc2ccccc2)[C@H](NC(=O)CCNC(=N)N)[C@@H](OCc2ccc(Cl)cc2)[C@@H]1O (stereo partly shown) [Compound 166]", "experimental.system": "Human SST5 somatostatin receptor (SSTR5) (Homo sapiens, UniProt P35346)", "reported.measurement": 73}
{"compound": "CO[C@H]1[C@H](O)[C@@H](COCc2ccc3ccccc3c2)OC(OCc2ccc3ccccc3c2)[C@@H]1NC(=O)CNC(=N)N (stereo partly shown) [Compound 126]", "experimental.system": "Human SST5 somatostatin receptor (SSTR5) (Homo sapiens, UniProt P35346)", "reported.measurement": 80}
{"compound": "COC[C@H]1OC(OCc2ccc3ccccc3c2)[C@H](NC(=O)CCNC(=N)N)[C@H](OCc2ccc(Cl)cc2)[C@@H]1O (stereo partly shown) [Compound 35]", "experimental.system": "Human SST5 somatostatin receptor (SSTR5) (Homo sapiens, UniProt P35346)", "reported.measurement": 95}
{"compound": "COC[C@H]1OC(OCc2ccc(Cl)cc2)[C@H](NC(=O)CCCN)[C@@H](OCc2cccc(O)c2)[C@@H]1O (stereo partly shown) [Compound 113]", "experimental.system": "Human SST5 somatostatin receptor (SSTR5) (Homo sapiens, UniProt P35346)", "reported.measurement": 83}

----------
Target: Human SST5 somatostatin receptor (SSTR5) (Homo sapiens, UniProt P35346)
Construct: expressed in transfected cells; host or cells: HEK-293 EBNA
Assay: Filter plate assay for SST5 receptor, displacement of [125I]SST-14
Assay type: binding
Details: 0.5 uM
measurement.type: SSTR5 Inhib 0.5 uM % (inhibition of binding of SST-14 to SSTR5) (%)

Before answering, review these 10 worked examples.
{"compound": "COC[C@H]1OC(OCc2ccc3ccccc3c2)[C@H](NC(=O)CCCNC(=N)N)[C@@H](OCc2ccc3ccccc3c2)[C@@H]1O (stereo partly shown) [Compound 75]", "reported.measurement": 61}
{"compound": "COC1C(O)C(COCc2ccc3ccccc3c2)OC(OCc2ccc(Cl)cc2)C1NC(=O)C1CCN(C(=N)N)CC1 (stereo not shown)", "reported.measurement": 55}
{"compound": "COC[C@H]1OC(OCc2ccc3ccccc3c2)[C@H](NC(=O)CCNC(=N)N)[C@@H](OCc2ccc(-c3ccccc3)cc2)[C@@H]1O (stereo partly shown) [Compound 86]", "reported.measurement": 58}
{"compound": "CSC1O[C@H](COCc2ccccc2)[C@@H](O)[C@@H](OCc2ccc3ccccc3c2)[C@H]1NC(=O)CCNC(=N)N (stereo partly shown)", "reported.measurement": 28}
{"compound": "COC[C@H]1OC(OCCc2ccccc2)[C@H](NC(=O)CCN)[C@H](OCc2ccccc2)[C@@H]1O (stereo partly shown)", "reported.measurement": 53}
{"compound": "COC[C@H]1OC(OCc2ccc(Cl)cc2)[C@H](NC(=O)CCNC(=N)N)[C@H](OCc2ccc(-c3ccccc3)cc2)[C@@H]1O (stereo partly shown)", "reported.measurement": 43}
{"compound": "CSC1O[C@H](COCc2ccc(-c3ccccc3)cc2)[C@@H](O)[C@@H](OCc2ccc3ccccc3c2)[C@H]1NC(=O)CCCN (stereo partly shown)", "reported.measurement": 48}
{"compound": "COC[C@H]1OC(OCc2ccc3ccccc3c2)[C@H](NC(=O)CCCN)[C@@H](OCc2ccc(-c3ccccc3)cc2)[C@@H]1O (stereo partly shown) [Compound 29]", "reported.measurement": 77}
{"compound": "CSC1O[C@H](COCc2ccccc2)[C@@H](O)[C@@H](OCc2ccc3ccccc3c2)[C@H]1NC(=O)CCCN (stereo partly shown)", "reported.measurement": 25}
{"compound": "COC[C@H]1OC(OCc2ccc3ccccc3c2)[C@H](NC(=O)CNC(=N)N)[C@H](OCc2ccc(Cl)cc2)[C@@H]1O (stereo partly shown)", "reported.measurement": 24}

P: CO[C@H]1[C@H](O)[C@@H](COCc2ccc(-c3ccccc3)cc2)OC(OCc2ccc(-c3ccccc3)cc2)[C@@H]1NC(=O)CNC(=N)N (stereo partly shown)
Q: COC[C@H]1OC(OCc2ccccc2)[C@H](NC(=O)CCCN)[C@H](OCc2ccc(-c3ccccc3)cc2)[C@@H]1O (stereo partly shown)
Asked: Given P and Q , report the one with the higher recorded SSTR5 Inhib 0.5 uM % (inhibition of binding of SST-14 to SSTR5). # reply format: chosen label
Given back: Q
(Q: 71%, P: 18%)

Value source: patent US20080280837A1
